Readings of MIC for the listed molecules
- System: C. albicans
- assay: Antifungal susceptibility testing (minimum inhibitory concentration), soyabean casein digest broth
- Type: cell-based
- assayContext: Candida albicans; end points after 48 hours, visually / spectrophotometer; NI till x = no inhibition up to x; read-out: Activity against organisms In μg/ml, C. albicans (minimum inhibitory concentration)
- Procedure: In vitro evaluation of antifungal activity can be performed by determining the minimum inhibitory concentration. Anti-fungal susceptibility testing of these anti-fungal compounds was done by conventional method using soyabean casein digest broth. Known anti-fungal agents like Fluconazole and amphotericin-B were used as positive control. End points were determined after 48 hours visually and by using Spectrophotometer wherever necessary. Different dilutions were tried and the set of experiments.

Worked examples follow.
Entry COc1ccc(C2=CC(COC(=O)CCCCCl)OC2=O)cc1Br (stereo not shown) [1IE] ; assay system C. albicans; MIC recorded at > 8 µg/mL

Entry COc1ccc(C2=CC(COC(C)=O)OC2=O)cc1Br (stereo not shown) [1BE] ; assay system C. albicans; MIC recorded at 2 to 4 µg/mL

Entry O=C1OC(COC(=O)c2cc(Br)c(Br)s2)C=C1c1ccc(Cl)c(Cl)c1 (stereo not shown) [1FA] ; assay system C. albicans; MIC recorded at > 4 µg/mL

Entry COc1ccc(C2=CC(COC(=O)c3cccc(I)c3)OC2=O)cc1Br (stereo not shown) [1JE] ; assay system C. albicans; MIC recorded at > 2 µg/mL

---
Entry O=C1OC(COC(=O)c2ccccc2)C=C1c1cccc(Br)c1 (stereo not shown) [1AC] ; assay system C. albicans; MIC recorded at 2 µg/mL

Entry O=C(CCCCl)OCC1C=C(c2cccc(F)c2)C(=O)O1 (stereo not shown) [1HD] ; assay system C. albicans; MIC recorded at 1 to 2 µg/mL

Entry O=C(CCCCl)OCC1C=C(c2ccc(Cl)c(Cl)c2)C(=O)O1 (stereo not shown) [1HA] ; assay system C. albicans; MIC recorded at 1 to 2 µg/mL

Entry O=C1OC(COC(=O)c2cccc(I)c2)C=C1c1cccc(Br)c1 (stereo not shown) [1JC] ; assay system C. albicans; MIC recorded at 2 to 4 µg/mL

Entry C=CCC(=O)OCC1C=C(c2cccc(Cl)c2)C(=O)O1 (stereo not shown) [1CB] ; assay system C. albicans; MIC recorded at 4 µg/mL

Entry O=C1OC(COC(=O)c2ccsc2)C=C1c1cccc(Br)c1 (stereo not shown) [1EC] ; assay system C. albicans; MIC recorded at 2 µg/mL
